# System: IGROV-1
# Protocol: NCI tumour cell line growth inhibition, 48 h
Calls of active or inactive are those of the source. Cut-off read from the data, not from the text of the source: active = GI50 up to about 1.1 µM and inactive = higher. *1 amine or outer side, *2 acyl side, *3 side chain or, on linkers, in order; H or OH if unused. Where a SMILES comes first, the peptide text is derived from it. Non-standard residues stand in square brackets, D forms with d. Residues, ends and D or L forms follow the SMILES beside them. Bridges are numbered along the chain shown (N, C = ends). [ ]: non-standard residue; d: D form. ξ: configuration not given here. X10 = CCC(C)C(N[*:1])C(O)CC(=O)O[C@H](C(=O)C(C)C(=O)[*:2])C(C)C; NMeY = CN[C@@H](Cc1ccc(O)cc1)C(=O)O; β3hI = CC[CH](C)[CH](N)CC(=O)O; ξNMeL = CNC(CC(C)C)C(=O)O; ξT = CC(O)C(N)C(=O)O
Catalogue of GI50 values

Worked set:
Compound | Readout name | Reported measurement
C=C1C(=O)OC2C1CC1OC2C(C)CCC/C(C)=C\CCC1(C)O (configuration not stated) | GI50 | 13.9 µM (inactive)
CCC(C)C(CC(=O)N1CCCC1C(=O)NC(C(=O)NC(C(=O)NCC(=O)NC(CC(N)=O)C(=O)NC(C(=O)NC(C(=O)NC(CCCCN)C(N)=O)C(C)CC)C(C)CC)C(C)C)C(C)CC)NC(=O)C(N)C(C)CC (stereo not drawn) (H-I[β3hI]PIVGNIIK-NH2; configuration not given here) | GI50 | > 50 µM (inactive)
COc1ccc2c(c1)c1cc(OC)ccc1n2CCCCOc1ccc(-c2c3ccccc3c(-c3ccc(OCCCCn4c5ccc(OC)cc5c5cc(OC)ccc54)cc3)c3ccccc23)cc1 | GI50 | > 100 µM (inactive)
c1ccc2c(c1)sc1c3cnccc3ccc21 | GI50 | 25.3 µM (inactive)
O=c1c(-c2ccccc2)c(SCCO)n(-c2ccccc2)c(=S)n1-c1ccccc1 | GI50 | > 100 µM (inactive)

Report value: GI50, system: IGROV-1, compound: CC1=CC(=O)/C(=C/Nc2nc(-c3ccc([N+](=O)[O-])cc3)cs2)C(=O)O1
> 100 µM (inactive)

Report value: GI50, system: IGROV-1, compound: CC(C)=CCC[C@@H](C)c1c2ncc[nH]c-2c(C)c(=O)c1O
26.7 µM (inactive)

Report value: GI50, system: IGROV-1, compound: CCOC(=O)C1=C(C)N(C)C(=S)NC1c1cccc(O)c1 (configuration not stated)
21.1 µM (inactive)

Report value: GI50, system: IGROV-1, compound: COc1ccc(NC(=O)NS(=O)(=O)c2ccc(C)cc2)nn1
> 100 µM (inactive)

Report value: GI50, system: IGROV-1, compound: CC(=O)C(C)CCOC1(C)OCCC1C (configuration not stated)
> 100 µM (inactive)

Report value: GI50, system: IGROV-1, compound: Cc1cc(C)c(N)c(C)c1N
> 100 µM (inactive)

Report value: GI50, system: IGROV-1, compound: CCC(C)C1NC(=O)C(NC(=O)C(CC(C)C)N(C)C(=O)[C@@H]2CCCN2)C(C)OC(=O)[C@H](Cc2ccc(OC)cc2)N(C)C(=O)[C@@H]2CCCN2C(=O)[C@H](CC(C)C)NC(=O)C(C)C(=O)[C@H](C(C)C)OC(=O)CC1O (some centres not stated) (H-P[ξNMeL][ξT][X10]LP[NMeY](Me); ester 3-C)
0.000288 µM (active)

Report value: GI50, system: IGROV-1, compound: C=C(C(=O)OCC)C(=O)OCC
> 100 µM (inactive)

Report value: GI50, system: IGROV-1, compound: Cc1nnc(N2C(=O)C(=Cc3ccc(Cl)cc3)N=C2c2ccc(Cl)cc2)nc1/C=C\c1ccc(N(C)C)cc1
> 100 µM (inactive)

Report value: GI50, system: IGROV-1, compound: OCC(CN1CCCCC1)(CN1CCCCC1)CN1CCCCC1
> 100 µM (inactive)
